# assay name: Oral bioavailability in rat
# Format: ADME, organism-based
# condition notes: in vivo
measured attribute: bioavailability (%)
Answers are plain numbers, in %.

Incoming: Identify the reported bioavailability for the following entry. `COc1ncc(-c2cc3c(C)nc(N)nc3n([C@H]3CC[C@H](OCO)CC3)c2=O)cc1F`
Outgoing: 79

---

# assay name: Permeability across dog RRCK cells
# Format: ADME, cell-based, Canis lupus familiaris, MDCKII-LE
# condition notes: MDCK, read-out: permeability
Answer each item with its documented Papp.
Numbers only, in ×10⁻⁶ cm/s.

Check out these entries, answers already filled in.
Incoming: Indicate its recorded Papp; the molecule in question is `COc1ccc(-c2cc3c(C)nc(N)nc3n([C@H]3CC[C@H](OCC(=O)O)CC3)c2=O)cn1`
Outgoing: 0.295

Incoming: Find the measured Papp of `COc1ncc(-c2cc3c(C)nc(N)nc3n([C@H]3CC[C@H](OCC(N)=O)CC3)c2=O)cc1F` and report it.
Outgoing: 26.2

Incoming: Consider the molecule `Cc1nc(N)nc2c1cc(-c1cnc3ccccc3c1)c(=O)n2[C@H]1CC[C@H](OCO)CC1` . State its measured Papp.
Outgoing: 19.7

Incoming: Query Papp for `COc1ncc(-c2cc3c(C)nc(N)nc3n([C@H]3CC[C@H](OCC(N)=O)CC3)c2=O)cn1`
Outgoing: 29.8

Incoming: Give me measured Papp, please, for this molecule: `COc1ncc(-c2cc3c(C)nc(N)nc3n([C@H]3CC[C@@H](OCC(N)=O)CC3)c2=O)cn1`
Outgoing: 30.1

Kindly give each listed record's Papp.
1. Cc1nc(N)nc2c1cc(-c1cn[nH]c1)c(=O)n2[C@H]1CC[C@@H](OCC(N)=O)CC1
2. COc1ncc(-c2cc3c(C)nc(N)nc3n([C@H]3CC[C@H](OCO)CC3)c2=O)cn1
3. Cc1nc(N)nc2c1cc(-c1cnn(C)c1)c(=O)n2[C@H]1CC[C@@H](OCO)CC1
4. COc1ccc(-c2cc3c(C)nc(N)nc3n([C@H]3CC[C@@H](OCC(N)=O)CC3)c2=O)cn1
5. Cc1nc(N)nc2c1cc(-c1cnc3ccccc3c1)c(=O)n2[C@H]1CC[C@@H](OCC(N)=O)CC1
6. COc1ncc(-c2cc3c(C)nc(N)nc3n([C@H]3CC[C@@H](OCC(N)=O)CC3)c2=O)cc1F
7. Cc1nc(N)nc2c1cc(-c1cnc3ccccc3c1)c(=O)n2[C@H]1CC[C@@H](OCO)CC1

Outgoing:
1: 0.151; 2: 21.3; 3: 23.3; 4: 30.3; 5: 4.57; 6: 26.2; 7: 41.6

Could you report Papp for every entry in the following list?
1. COc1ccc(-c2cc3c(C)nc(N)nc3n([C@H]3CC[C@H](OCC(N)=O)CC3)c2=O)cn1
2. Cc1nc(N)nc2c1cc(-c1cnc3ccccc3c1)c(=O)n2[C@H]1CC[C@H](OCC(N)=O)CC1
3. Cc1nc(N)nc2c1cc(-c1cn[nH]c1)c(=O)n2[C@H]1CC[C@@H](OCO)CC1

Outgoing:
4.58
9.02
12.6
